tested on: myeloid leukemia patient primary cells Pat.7; assay: cell viability (% survival relative to DMSO control); higher = less cytotoxic; details: 10000 nM; 72 h
Overview of reported cell viability across a group of molecules:

[
  {
    "molecule.smiles": "Oc1ncc(F)c(O)n1",
    "cell viability, %": 50.8
  },
  {
    "molecule.smiles": "Cc1nnc(-c2ccc(N3CCC(Oc4ccccc4C(F)(F)F)CC3)nn2)s1",
    "cell viability, %": 41.2
  },
  {
    "molecule.smiles": "Nc1nc(O)c2c(CCc3ccc(C(=O)N[C@@H](CCC(=O)O)C(=O)O)cc3)c[nH]c2n1",
    "cell viability, %": 66.3
  },
  {
    "molecule.smiles": "O=C(Oc1cccc(F)c1OC(=O)c1cccc(O)c1)c1cccc(O)c1",
    "cell viability, %": 8.3
  }
]

Data provenance: the supplement of paper PMC8671470
